Data origin: the supplement of paper PMC10065799

# target.of.assay: c-Src SH2;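 note: peptide library displayed on the E. coli surface as eCPX fusions, selected cells deep-sequenced, score is each peptide's frequency after selection divided by its frequency in the input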
# test.protocol: SH2 binding enrichment of the phosphorylated peptide, bacterial display (enrichment ratio); higher = better substrate or ligand; peptides without Tyr show the background
Where SH2 binding enrichment equals or exceeds 0.6, the correct label is True; where it does not, the label is False.

Check out these entries, answers already filled in.
YTHSDYQYGQR [PKP2_Y166_S169G]; True
DEEFEYMNRRR [ERBB3_Y1199_YF]; False
TDGIAYEFRVI; False
NYSKMYCNPDA [KNL1_Y489_A486S]; True
TYAVSYLPDMS [FLNC_Y1602_T1599A]; True

# evaluate next
Q) Decide: SH2 binding enrichment of LLNPRYNLPLD [TOM1L1_Y109] >= 0.6?
A) True

---

# target.of.assay: Jak2 (UniProt O60674)
# Sequence (O60674 whole entry, looked up): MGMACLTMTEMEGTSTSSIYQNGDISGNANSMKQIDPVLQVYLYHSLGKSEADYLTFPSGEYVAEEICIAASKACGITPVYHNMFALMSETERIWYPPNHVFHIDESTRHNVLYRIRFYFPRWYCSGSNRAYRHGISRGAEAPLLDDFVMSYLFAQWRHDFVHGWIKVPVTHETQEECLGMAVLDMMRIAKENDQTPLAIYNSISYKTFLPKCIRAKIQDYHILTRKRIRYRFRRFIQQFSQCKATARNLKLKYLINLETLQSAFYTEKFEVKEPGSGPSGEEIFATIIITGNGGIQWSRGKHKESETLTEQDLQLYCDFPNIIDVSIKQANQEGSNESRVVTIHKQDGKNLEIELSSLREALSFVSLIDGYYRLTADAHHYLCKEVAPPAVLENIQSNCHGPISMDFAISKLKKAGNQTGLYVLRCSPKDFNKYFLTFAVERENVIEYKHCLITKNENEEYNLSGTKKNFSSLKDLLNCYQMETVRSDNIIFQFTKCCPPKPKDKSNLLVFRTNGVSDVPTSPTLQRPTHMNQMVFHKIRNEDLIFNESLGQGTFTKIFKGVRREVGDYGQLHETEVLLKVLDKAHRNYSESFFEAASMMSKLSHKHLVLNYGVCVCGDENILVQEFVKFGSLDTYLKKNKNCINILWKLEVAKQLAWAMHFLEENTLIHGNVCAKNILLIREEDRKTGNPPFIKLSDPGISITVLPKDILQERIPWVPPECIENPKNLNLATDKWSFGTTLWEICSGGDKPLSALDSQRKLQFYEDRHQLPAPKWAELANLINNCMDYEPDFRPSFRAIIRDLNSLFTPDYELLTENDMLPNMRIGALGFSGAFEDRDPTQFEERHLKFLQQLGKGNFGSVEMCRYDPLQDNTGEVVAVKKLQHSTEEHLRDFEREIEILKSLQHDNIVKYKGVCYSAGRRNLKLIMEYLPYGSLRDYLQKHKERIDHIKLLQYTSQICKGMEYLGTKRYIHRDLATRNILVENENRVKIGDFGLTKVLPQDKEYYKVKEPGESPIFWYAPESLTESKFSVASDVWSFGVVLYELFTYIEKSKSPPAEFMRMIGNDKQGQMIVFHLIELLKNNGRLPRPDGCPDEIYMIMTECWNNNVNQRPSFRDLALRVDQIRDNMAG
# test.protocol: phosphorylation enrichment, bacterial display (enrichment ratio); higher = better substrate or ligand; peptides without Tyr show the background
measured.metric: phosphorylation enrichment

Field: example entries. Status: answers known.
LSNPAYRLLLA [DDR1_Y513]; 1.99
AKKMKYFEGVS [PRKDC_Y682_I680M]; 0.499
SPDMLYQFLKQ [RPAP3_Y567_YF]; 0.679
LDPMVYMNDTS [PTK2B_Y834_K838T]; 1.48
VICRRYLVMQR [IL3RA_Y328]; 0.894
GSSEGYLHMVH [NIPBL_Y247_D246G]; 0.617

Q) Which phosphorylation enrichment is listed for EFFENYIEELK [PARP4_Y218_F215Y_YF] ?
A) 1.41

Q) Also check TLNVRYESVQA [CEACAM7_Y236]
A) 0.755

Q) Also check MKGDFYRSLAE [YWHAG_Y131_Y133S_YF]
A) 0.811

Q) Also check IVTLKYPIEHG [ACTB_Y69_L65V]
A) 0.74

Q) Also check SECCKYKIDNL [OSMR_Y689_P694L]
A) 0.823

Q) Also check VTAALYGRLFE [BTD_Y536_YF]
A) 0.633

Q) Also check EEGRVYVFHLS [ITGAE_Y549_R552H_YF]
A) 0.958

Q) Also check RFLRGYRQDAF [HLA-A_Y137_YF]
A) 0.498

---

# Test system: Fer (mouse)
# test.protocol: phosphorylation enrichment, bacterial display (enrichment ratio); higher = better substrate or ligand; peptides without Tyr show the background
measured.metric: phosphorylation enrichment
Write the value as a bare number.

Field: example entries. Status: answers known.
GEEIKYMLWLS [OTC_Y55]; 0.745
LEEFQYIGESQ [MSH2_Y856]; 0.918
SKAFAYVHFDS [PABPC5_Y149_G146A_YF]; 0.537
GTGTAYLCGVK [ALPL_Y117_A114G]; 0.511
ERWLKYFPNEQ [HS3ST5_Y244_I247N]; 0.459

Q) Which phosphorylation enrichment is listed for NARGLYYKLHN [GATA2_Y376_C373R] ?
A) 0.496

Q) Also check ATPSRYMTFLH [DYNC2H1_Y2872]
A) 0.457

---

# Test system: AncSZ
# test.protocol: phosphorylation enrichment, bacterial display (enrichment ratio); higher = better substrate or ligand; peptides without Tyr show the background
Where phosphorylation enrichment equals or exceeds 0.7, the correct label is met; where it does not, the label is not met.

NGSFLYVIISQ [LRP1B_Y1988_R1987L]; met
KRRGPYEMSPS [PLPP7_Y172_T174M]; not met
IVFVICDEVVK [SLC25A1_Y297_Y297C]; met
RGNKEYKEEKR [LENG1_Y96_E97K]; not met
EFFENYIEELK [PARP4_Y218_F215Y_YF]; met

Q) Decide: phosphorylation enrichment of LGSWTYTKTVS [ROS1_Y144] >= 0.7?
A) met

Q) Also check ARGTRYRFVSQ [UCN3_Y95_YF]
A) not met

Q) Also check RLLVIYPWTQR [HBG2_Y36_V35I]
A) met

Q) Also check FEPDAYFDLDQ [ELP5_Y302_D303Y_YF]
A) met

Q) Also check ATPSRYMTFLH [DYNC2H1_Y2872]
A) not met

---

# Test system: c-Abl (mouse)
# test.protocol: phosphorylation enrichment, bacterial display (enrichment ratio); higher = better substrate or ligand; peptides without Tyr show the background
Where phosphorylation enrichment equals or exceeds 0.6, the correct label is criterion met; where it does not, the label is criterion not met.

Check out these entries, answers already filled in.
EDDPEYMRLRN [ADD2_Y31]; criterion met
LAETSYVIVLE [MAGEA1_Y276_K278I]; criterion met
AHPGEYGAEAL [HBA1_Y25_A22P]; criterion met

Q) Decide: phosphorylation enrichment of RNIQQYNSFVS [PRKAR1A_Y373] >= 0.6?
A) criterion met

Q) Also check NHFKIYNLFAE [PTEN_Y68_C71Y_YF]
A) criterion not met

Q) Also check GNLLIYTEFGK [HGD_Y166]
A) criterion met

Q) Also check FSTDFYRVGGH [NTRK2_Y707_YF]
A) criterion met

Q) Also check GHNDVYISEHV [GRIN2A_Y1423]
A) criterion not met

Q) Also check GITTGYLVLKE [DNMT3B_Y588_A585T]
A) criterion not met

Q) Also check SLEKSYELLDG [ACTB_Y240_P243L]
A) criterion met

Q) Also check KLKEKYQKDIA [HMGB1_Y155_E156Q]
A) criterion met

Q) Also check SFPPTYRFERG [INPPL1_Y661_YF]
A) criterion not met

Q) Also check TGVWDYIHVVD [GALE_Y241_R239W]
A) criterion met

Q) Also check KLSFSYGRALQ [ALDOB_Y302]
A) criterion met

---

# target.of.assay: Hck (UniProt P08631)
# Sequence (P08631 whole entry, looked up): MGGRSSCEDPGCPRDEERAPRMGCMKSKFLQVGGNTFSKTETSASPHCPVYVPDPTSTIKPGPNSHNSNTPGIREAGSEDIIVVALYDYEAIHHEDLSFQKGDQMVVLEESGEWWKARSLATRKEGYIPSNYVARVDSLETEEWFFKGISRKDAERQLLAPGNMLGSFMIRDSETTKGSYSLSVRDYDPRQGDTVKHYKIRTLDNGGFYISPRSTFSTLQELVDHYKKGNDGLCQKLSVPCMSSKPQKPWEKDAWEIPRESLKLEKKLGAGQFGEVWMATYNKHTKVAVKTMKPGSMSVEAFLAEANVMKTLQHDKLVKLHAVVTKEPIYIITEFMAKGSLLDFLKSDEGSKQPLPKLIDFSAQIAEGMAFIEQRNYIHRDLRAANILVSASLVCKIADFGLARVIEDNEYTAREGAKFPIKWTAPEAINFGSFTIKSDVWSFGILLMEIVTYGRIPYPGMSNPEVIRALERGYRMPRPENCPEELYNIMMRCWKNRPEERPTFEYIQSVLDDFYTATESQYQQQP
# test.protocol: phosphorylation enrichment, bacterial display (enrichment ratio); higher = better substrate or ligand; peptides without Tyr show the background
measured.metric: phosphorylation enrichment
Write the value as a bare number.

Field: example entries. Status: answers known.
KDHPDYKFQRR [SOX10_Y171_P175R_YF]; 0.382
EVEPTYVVLFD [ERCC4_Y577_R576T_YF]; 3.99
LFMGDYVGRGF [PPP2CA_Y86_D88G_YF]; 1.53
SSENPCATIKD [MEGF10_Y1030_Y1030C]; 0.492
LFCLHYFHRTF [SRD5A2_Y91_V89L]; 0.494
LTDLRYKVSGP; 0.594

Q) Which phosphorylation enrichment is listed for YCRIMYDIFPF [INTS13_Y67] ?
A) 3.78

---

# Test system: c-Src
# test.protocol: phosphorylation enrichment, bacterial display (enrichment ratio); higher = better substrate or ligand; peptides without Tyr show the background
Listed here are sequences together with their documented phosphorylation enrichment.
Write the value as a bare number.

GAEIVYKSPVV [MAPT_Y711]; 0.526
AFSLKYEQQTQ [SYTL4_Y366]; 0.364

Q) Hi! What's the reported phosphorylation enrichment for GEVLVYVEDPA [FLNA_Y319] on c-Src?
A) 0.636

Q) Also check ISDNACQFMLT [MYH7_Y162_Y162C_YF]
A) 0.448

Q) Also check LKSEMYQKLLK [RGS13_Y146]
A) 0.425

Q) Also check CTTIHFNYMCN [TP53_Y234_Y234F]
A) 0.519

Q) Also check VDFQPYRKHKF [TEX37_Y28_YF]
A) 0.377

Q) Also check SVVVPYEPAEV [TP53_Y220_P223A]
A) 0.539

Q) Also check AKKKMYSHKTK [AGXT_Y231_R233H]
A) 0.727

Q) Also check KNNDGYTDYAE [MCFD2_Y135_I136T]
A) 0.383

---

# target.of.assay: MERTK (UniProt Q12866)
# Sequence (Q12866 whole entry, looked up): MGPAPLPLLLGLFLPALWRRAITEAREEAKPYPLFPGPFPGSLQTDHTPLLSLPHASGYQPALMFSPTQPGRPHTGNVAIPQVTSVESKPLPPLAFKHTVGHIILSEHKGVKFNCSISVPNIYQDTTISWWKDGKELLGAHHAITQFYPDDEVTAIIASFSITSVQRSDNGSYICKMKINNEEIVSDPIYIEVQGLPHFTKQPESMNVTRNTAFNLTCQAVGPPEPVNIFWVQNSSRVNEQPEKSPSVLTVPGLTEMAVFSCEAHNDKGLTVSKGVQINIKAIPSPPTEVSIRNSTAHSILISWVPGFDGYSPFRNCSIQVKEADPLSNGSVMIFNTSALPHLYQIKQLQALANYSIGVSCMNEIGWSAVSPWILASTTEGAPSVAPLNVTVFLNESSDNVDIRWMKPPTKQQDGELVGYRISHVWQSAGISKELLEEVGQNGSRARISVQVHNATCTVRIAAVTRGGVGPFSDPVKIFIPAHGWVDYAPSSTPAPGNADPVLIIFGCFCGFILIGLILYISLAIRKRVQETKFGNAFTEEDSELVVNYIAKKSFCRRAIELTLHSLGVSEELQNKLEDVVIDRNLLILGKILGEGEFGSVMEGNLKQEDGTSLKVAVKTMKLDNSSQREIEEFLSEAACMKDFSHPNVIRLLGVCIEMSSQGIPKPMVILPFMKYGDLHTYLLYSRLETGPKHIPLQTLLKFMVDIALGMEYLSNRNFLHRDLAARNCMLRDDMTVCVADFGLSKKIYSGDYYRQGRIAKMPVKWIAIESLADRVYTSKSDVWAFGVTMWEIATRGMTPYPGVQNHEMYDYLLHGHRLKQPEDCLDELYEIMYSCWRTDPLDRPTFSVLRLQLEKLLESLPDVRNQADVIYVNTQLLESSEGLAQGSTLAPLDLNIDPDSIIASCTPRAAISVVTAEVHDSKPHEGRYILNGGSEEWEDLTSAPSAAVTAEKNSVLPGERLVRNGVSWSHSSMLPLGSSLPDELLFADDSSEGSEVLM
# test.protocol: phosphorylation enrichment, bacterial display (enrichment ratio); higher = better substrate or ligand; peptides without Tyr show the background
measured.metric: phosphorylation enrichment

Field: example entries. Status: answers known.
KFACSYTPVKA [FLNB_Y708_T703K_YF]; 0.481
HYEFKYVINAI [MAOA_Y268_C266F]; 0.572
EIASHYRHLLR [ZBTB46_Y14_T11A]; 0.421
HPWPQYTTRAP [FNDC1_Y1281]; 0.546

Q) Which phosphorylation enrichment is listed for ISDNACQFMLT [MYH7_Y162_Y162C_YF] ?
A) 0.448

Q) Also check VHLYAYDWISI [BEST1_Y227_G222V]
A) 8.36

Q) Also check RKKEEYKMALY [F8_Y1990]
A) 0.462

Q) Also check REVPVYIGEDS [SYNM_Y460]
A) 0.426

Q) Also check KFLENYLNCLL [PLD2_Y169_R172C_YF]
A) 0.461

Q) Also check EVDETYVPKEF [ALB_Y521]
A) 0.491

Q) Also check AEPHTYEEPGR [EPHA8_Y616]
A) 0.501

Q) Also check RCNHPYLINGA [CHD7_Y1256_C1251R]
A) 0.429

Q) Also check LQTFRYHGLSM [PDHA1_Y289_H292L_YF]
A) 0.747

Q) Also check YPKVRYHWLVL [APTX_Y214_A212V]
A) 0.448
